The values you see were collected from paper PMC10056986.

Record form. Attribute: day on which body weight of surviving mice began to recover. Fill in for each entry.
System: influenza A virus WSN/33 (H1N1)
Set-up: species or system BALB/c mice
Test parameters: mouse, in vivo
Report the figure in days without appending any unit label.

**Q:** Give influenza A virus WSN/33 (H1N1) day on which body weight of surviving mice began to recover for CCOC(=O)C1=C[C@@H](OC(CC)CC)[C@H](NC(C)=O)[C@@H](N)C1 [Oseltamivir]
**A:** 9

**Q:** What is its day on which body weight of surviving mice began to recover for influenza A virus WSN/33 (H1N1)? Entry: NC(=O)c1nc(F)c[nH]c1=O [Favipiravir]
**A:** 9

**Q:** Item O=C(O)[C@H]1C2CCC(CC2)[C@@H]1Nc1nc(-c2c[nH]c3ncc(F)cc23)ncc1F [VX-787, reference compound] with influenza A virus WSN/33 (H1N1) - day on which body weight of surviving mice began to recover?
**A:** 8

**Q:** What is its day on which body weight of surviving mice began to recover for influenza A virus WSN/33 (H1N1)? Entry: O=C(O)[C@H]1C2CCC(CC2)[C@@H]1Nc1nc(-c2n[nH]c3ncc(F)cc23)nc(C2CC2)c1F [ZSP1273]
**A:** 8
